Measurement record for human JAK2 (Homo sapiens); quantity recorded: pIC50.
pIC50: −log10 of the molar value.

Smi | pIC50
C=CC(=O)N(C)c1ccc(Sc2nc(Nc3ccc(N4CCOCC4)cc3)ncc2C)cc1 | > 6.30
Cc1cnc(Nc2ccc(N3CCOCC3)cc2)nc1Sc1ccc(NC(=O)CO)cc1 | > 6.00
C=CC(=O)Nc1ccc(Sc2nc(Nc3cccc(O)c3)ncc2C)cc1 | < 6.00
Cc1cc(Sc2nc(Nc3ccc(N4CCOCC4)cc3)ncc2C)ccc1N | > 6.00

For human JAK2 (Homo sapiens), give the measured pIC50 of the entry "COc1ccc(Nc2nccc(Sc3ccc(NC(=O)CC#N)cc3)n2)cc1OC" < 6.00

For human JAK2 (Homo sapiens), give the measured pIC50 of the entry "C=CC(=O)Nc1ccc(Sc2nc(Nc3ccc(N4CCOCC4)cc3)ncc2I)cc1" < 6.00

For human JAK2 (Homo sapiens), give the measured pIC50 of the entry "C=CC(=O)Nc1ccc(Sc2nc(Nc3ccc(N4CCOCC4)cc3)ncc2F)cc1" < 6.00

For human JAK2 (Homo sapiens), give the measured pIC50 of the entry "C=CC(=O)Nc1ccc(Sc2nc(Nc3ccc(N4CCC(CO)CC4)cc3)ncc2C)cc1" < 6.00

For human JAK2 (Homo sapiens), give the measured pIC50 of the entry "OCc1cccc(Sc2ccnc(Nc3ccc(N4CCOCC4)cc3)n2)c1" > 6.30

For human JAK2 (Homo sapiens), give the measured pIC50 of the entry "C=CC(=O)Nc1ccc(Sc2ccnc(Nc3ccc(S(N)(=O)=O)cc3)n2)cc1" < 6.00

---

Target system: Blk(m) (Mus musculus, UniProt P16277)
Construct: purchased Upstate Biotechnology (Dundee, UK), KinaseProfiler service
Sequence (P16277 whole entry): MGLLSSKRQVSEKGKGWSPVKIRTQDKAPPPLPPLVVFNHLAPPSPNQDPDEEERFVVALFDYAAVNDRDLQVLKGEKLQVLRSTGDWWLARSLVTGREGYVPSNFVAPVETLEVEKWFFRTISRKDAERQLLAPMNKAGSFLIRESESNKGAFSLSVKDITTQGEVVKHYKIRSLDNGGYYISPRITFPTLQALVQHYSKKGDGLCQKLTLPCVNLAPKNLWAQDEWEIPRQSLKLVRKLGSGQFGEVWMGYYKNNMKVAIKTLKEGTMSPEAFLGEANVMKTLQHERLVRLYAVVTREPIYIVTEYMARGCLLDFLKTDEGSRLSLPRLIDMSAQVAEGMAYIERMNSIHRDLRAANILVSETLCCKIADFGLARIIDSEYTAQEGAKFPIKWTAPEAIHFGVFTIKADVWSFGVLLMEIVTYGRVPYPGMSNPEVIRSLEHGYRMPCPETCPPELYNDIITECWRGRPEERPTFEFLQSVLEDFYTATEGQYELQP
Assay method text: Upstate KinaseProfiler enzyme assay, Blk
Type: biochemical
Conditions: 500 nM compound; read-out: Percent inhibition at 500 nM Blk(m)
Quantity kind: inhibition at 0.5 µM
Answer format: value, then unit.

Guide cases for inhibition at 0.5 µM, answers given:
Smi | inhibition at 0.5 µM
C=CC(=O)N1CCCc2cc(Sc3nc(Nc4ccc(N5CCOCC5)cc4)ncc3C)ccc21 | 98%
C=CC(=O)Nc1ccc(Sc2ccnc(Nc3ccc(N4CCOCC4)cc3)n2)cc1OC | 100%
C=CC(=O)NCc1cccc(Sc2ccnc(Nc3ccc(N4CCOCC4)cc3)n2)c1 | 100%

Please find the next molecule below.
For Blk(m) (Mus musculus, UniProt P16277), give the measured inhibition at 0.5 µM of the entry "C=CC(=O)Nc1ccc(Sc2nc(Nc3ccc(N4CCOCC4)c(OC)c3)ncc2C)cc1" 92%

---

Each item that follows carries a reported GI50.
Target system: BaF3 TELJAK3 cells (Homo sapiens)
Construct: fused on or other part: TEL (ETV6) N-terminal part, coding nucleotides 1-487, serves as the oligomerising partner; It is fused through a Sal I site to the JAK3 kinase domain and expressed from pTRE2 in BaF3 cells bearing pTET-off; P41212 (Transcription factor ETV6)
Sequence (P52333 1-1124): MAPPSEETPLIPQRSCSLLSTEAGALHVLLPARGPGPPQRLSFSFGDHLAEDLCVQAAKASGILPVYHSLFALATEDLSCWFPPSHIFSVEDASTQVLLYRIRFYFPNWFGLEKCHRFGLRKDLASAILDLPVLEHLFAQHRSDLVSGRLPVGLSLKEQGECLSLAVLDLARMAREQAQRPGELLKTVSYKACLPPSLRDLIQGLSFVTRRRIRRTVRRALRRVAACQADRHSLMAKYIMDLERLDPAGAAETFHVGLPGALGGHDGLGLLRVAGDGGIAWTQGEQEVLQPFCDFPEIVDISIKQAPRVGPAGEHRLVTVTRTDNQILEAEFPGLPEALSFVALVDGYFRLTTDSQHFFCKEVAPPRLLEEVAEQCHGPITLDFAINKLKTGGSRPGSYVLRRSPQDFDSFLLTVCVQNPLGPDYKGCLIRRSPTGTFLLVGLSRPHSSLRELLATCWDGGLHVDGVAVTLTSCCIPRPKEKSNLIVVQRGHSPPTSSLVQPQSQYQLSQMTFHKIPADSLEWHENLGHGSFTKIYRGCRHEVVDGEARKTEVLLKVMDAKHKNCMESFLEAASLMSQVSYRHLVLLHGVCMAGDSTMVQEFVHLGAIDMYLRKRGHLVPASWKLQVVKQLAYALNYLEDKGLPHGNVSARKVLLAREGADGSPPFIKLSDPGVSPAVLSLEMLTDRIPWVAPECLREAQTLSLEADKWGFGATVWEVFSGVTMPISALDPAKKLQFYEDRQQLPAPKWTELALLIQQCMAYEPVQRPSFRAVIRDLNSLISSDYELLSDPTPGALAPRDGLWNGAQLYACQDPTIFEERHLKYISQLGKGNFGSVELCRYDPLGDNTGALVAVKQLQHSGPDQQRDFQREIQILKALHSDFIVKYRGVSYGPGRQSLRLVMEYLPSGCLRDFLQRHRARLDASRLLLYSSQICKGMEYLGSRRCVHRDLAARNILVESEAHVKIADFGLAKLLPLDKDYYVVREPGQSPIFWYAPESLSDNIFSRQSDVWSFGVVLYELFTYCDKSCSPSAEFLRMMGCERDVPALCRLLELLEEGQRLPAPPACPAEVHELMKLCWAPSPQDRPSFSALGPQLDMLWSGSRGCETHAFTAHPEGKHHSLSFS
Assay method text: Cellular screening, BaF3 TEL:JAK3 cells, Alamar Blue
Type: cell-based
Conditions: 40 hr, read-out: BafT_J3 IC50_nM

Guide cases for GI50, answers given:
Compound | Target system | Quantity kind | Result
Cc1cnc(Nc2ccc(N3CCOCC3)cc2)nc1Sc1ccc2c(c1)CCCN2 [Compound 166] | BaF3 TELJAK3 cells (Homo sapiens) | GI50 | < 20 µM
C=CC(=O)Nc1ccc(Sc2nc(Nc3ccc(N4CCOCC4)cc3)ncc2F)cc1 [Compound 268] | BaF3 TELJAK3 cells (Homo sapiens) | GI50 | < 1 µM
C=CC(=O)Nc1ccc(Sc2nc(Nc3cccc(N4CCOCC4)c3)ncc2C)cc1 [Compound 237] | BaF3 TELJAK3 cells (Homo sapiens) | GI50 | < 1 µM

Please find the next compound below.
In one line, give reported GI50 of the entry C=CC(=O)Nc1ccc(Sc2ccnc(Nc3ccc(F)c(C#N)c3)n2)cc1 [Compound 354] . < 20 µM
